target: UniProt P21453; assay: Calcium mobilization Gq assay, S1P1; type: cell-based; conditions: calcium mobilization Gq assay, whole cell
Sequence (P21453 whole entry): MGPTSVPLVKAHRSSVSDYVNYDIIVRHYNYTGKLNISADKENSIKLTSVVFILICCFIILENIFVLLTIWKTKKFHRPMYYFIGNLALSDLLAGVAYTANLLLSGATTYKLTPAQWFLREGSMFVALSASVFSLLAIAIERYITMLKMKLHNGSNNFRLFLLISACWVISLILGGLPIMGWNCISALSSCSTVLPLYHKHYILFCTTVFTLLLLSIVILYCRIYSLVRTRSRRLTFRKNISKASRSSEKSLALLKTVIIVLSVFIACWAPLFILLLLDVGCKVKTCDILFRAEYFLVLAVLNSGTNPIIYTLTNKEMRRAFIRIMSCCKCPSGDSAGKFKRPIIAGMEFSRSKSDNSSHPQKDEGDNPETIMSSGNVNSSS
measurementKind: EC50 S1P1

The reported EC50 S1P1 of the compound `CCCCCCCCc1ccc2c(c1)CC[C@H]([C@](C)(N)COP(=O)(O)O)C2` was not active

The reported EC50 S1P1 of the compound `CCCCCCCCc1ccc2c(c1)CC[C@@H]([C@@](C)(N)COP(=O)(O)O)C2` was very active

The reported EC50 S1P1 of the compound `CCCCCCCCc1ccc2c(c1)CC[C@H]([C@@](C)(N)COP(=O)(O)O)C2` was very active

The reported EC50 S1P1 of the compound CCCCCCCCc1ccc(CC[C@@](N)(CO)COP(=O)(O)O)cc1 [(R)-FTY720-P, reference compound] was not active

----------
target: human S1P3 (Homo sapiens, UniProt Q99500); assay: Calcium mobilization Gi assay, S1P3; format: cell-based; conditions: calcium mobilization Gi assay, whole cell
Sequence (Q99500 whole entry): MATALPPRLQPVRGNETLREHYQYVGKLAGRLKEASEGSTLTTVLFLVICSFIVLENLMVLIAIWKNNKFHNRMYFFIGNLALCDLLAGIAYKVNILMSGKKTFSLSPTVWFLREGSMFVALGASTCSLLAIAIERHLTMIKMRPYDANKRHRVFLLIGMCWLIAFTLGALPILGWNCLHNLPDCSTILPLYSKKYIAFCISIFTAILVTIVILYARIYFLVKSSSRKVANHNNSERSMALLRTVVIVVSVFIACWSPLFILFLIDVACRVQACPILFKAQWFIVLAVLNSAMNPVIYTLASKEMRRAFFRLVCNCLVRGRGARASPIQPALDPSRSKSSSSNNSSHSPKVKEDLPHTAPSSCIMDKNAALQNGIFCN
measurementKind: EC50 S1P3

Hey, human S1P3 (Homo sapiens, UniProt Q99500) data for CCCCCCCCc1ccc(CC[C@@](N)(CO)COP(=O)(O)O)cc1 [(R)-FTY720-P, reference compound] : EC50 S1P3 came out at not active

Hey, human S1P3 (Homo sapiens, UniProt Q99500) data for CCCCCCCCc1ccc2c(c1)CC[C@@H](C(N)(CO)COP(=O)(O)O)C2 (single isomer, unassigned) [(2’R)-3-P isomer 2] : EC50 S1P3 came out at not active

Hey, human S1P3 (Homo sapiens, UniProt Q99500) data for CCCCCCCCc1ccc2c(c1)CC[C@H]([C@](C)(N)COP(=O)(O)O)C2 [(2S, 2’S)-6] : EC50 S1P3 came out at no activity

Hey, human S1P3 (Homo sapiens, UniProt Q99500) data for CCCCCCCCc1ccc2c(c1)CC[C@@H]([C@](C)(N)COP(=O)(O)O)C2 [(2S, 2’R)-6] : EC50 S1P3 came out at no activity

All figures here come from paper PMC2843818.
